- experimental protocol: Cytotoxicity assay, HDF (Cell Counting Kit-8)
- Type: cell-based
- details: human dermal fibroblast (HDF) cells, normal human dermal fibroblasts
Please go through the items and note down their EC50 at 48 h.

Please report the measured EC50 at 48 h for c1ccc2c(-c3ccc4c(c3)SN3CCCN=C43)cccc2c1
> 10 µM

Tell me its EC50 at 48 h given O=[N+]([O-])c1ccccc1-c1ccc2c(c1)SN1CCCN=C21 as the entry.
9.44 µM

Could you please provide reported EC50 at 48 h for N=C1Sc2cc(-c3ccc(C(N)=O)cc3)ccc2C2=NCCCN12 ? Thanks!
> 10 µM

For N=C1Sc2ccc(-c3ccccc3)cc2C2=NCCCN12 , write its EC50 at 48 h.
> 10 µM

Please report EC50 at 48 h for the following molecule: CS(=O)(=O)Nc1cccc(-c2ccc3c(c2)SC(=N)N2CCCN=C32)c1
> 10 µM

Identify EC50 at 48 h associated with the molecule CC(=O)Nc1cccc(-c2ccc3c(c2)SC(=N)N2CCCN=C32)c1
> 10 µM

Tell me EC50 at 48 h reported for c1ccc(-c2ccc3c(c2)C2=NCCCN2S3)cc1
8.38 µM

Respond only with EC50 at 48 h recorded for COC(=O)c1cccc(-c2ccc3c(c2)SN2CCCN=C32)c1
9.16 µM

Recall and state the measured EC50 at 48 h for N=C1Sc2cc(-c3ccc(OC(F)(F)F)cc3)ccc2C2=NCCCN12 .
> 10 µM
